test system: MDA-MB-231; assay: NCI tumour cell line growth inhibition, 48 h
Calls of active or inactive are those of the source. No stated cut-off is given here; in the data, active = GI50 up to about 1.1 µM and inactive = higher.
readoutLabel: GI50

Please state recorded GI50 (tested on MDA-MB-231) of NC1OC(COC(=O)c2ccccc2)C(O)C(OC(=O)c2ccccc2)C1OC(=O)c1ccccc1 (stereo not drawn)
18.7 µM (inactive)

Please state recorded GI50 (tested on MDA-MB-231) of CN(C)CCNC(=O)c1cccc2c1Oc1cccc([N+](=O)[O-])c1O2
4.33 µM (inactive)

Please state recorded GI50 (tested on MDA-MB-231) of COc1ccccc1NC1Oc2cc3c(cc2C(c2cc(OC)c(OC)c(OC)c2)C1C)OCO3 (stereo not drawn)
1.78 µM (inactive)

Please state recorded GI50 (tested on MDA-MB-231) of O=C1c2ccccc2-c2c1c1ccccc1c(=O)n2CCO
46 µM (inactive)

Please state recorded GI50 (tested on MDA-MB-231) of Cc1ccc(/C=C2\Cc3cc(C)c(C)cc3C2=O)c(C(=O)O)c1
28.2 µM (inactive)

Please state recorded GI50 (tested on MDA-MB-231) of C/C=C(/C)C(=O)O[C@@H]1c2c(C)coc2C[C@H]2CC[C@H](O)[C@H](C)[C@]21C
71.6 µM (inactive)

Please state recorded GI50 (tested on MDA-MB-231) of CCCCCCCCCCCCCCCCC1=CC(=O)C=C(OC)C1=O
> 100 µM (inactive)

Please state recorded GI50 (tested on MDA-MB-231) of OC(C1CCC=NN1C(O)(C(F)(F)F)C(F)(F)F)(C(F)(F)F)C(F)(F)F (stereo not drawn)
> 10 µM (inactive)

Please state recorded GI50 (tested on MDA-MB-231) of ClCCCCCc1c2nc(c(CCCCCCl)c3ccc([nH]3)c(CCCCCCl)c3nc(c(CCCCCCl)c4ccc1[nH]4)C=C3)C=C2
> 100 µM (inactive)

Please state recorded GI50 (tested on MDA-MB-231) of Cc1ccc(C(=O)CC(Cl)=C(Cl)Cl)cc1
98.2 µM (inactive)

Please state recorded GI50 (tested on MDA-MB-231) of O=[N+]([O-])C(Cl)=C/C(=C(\Cl)SCc1ccccc1)[N+](=O)[O-]
27.7 µM (inactive)

Please state recorded GI50 (tested on MDA-MB-231) of O=C1C(c2c(O)[nH]c3ccccc23)=Nc2ccc(Br)cc21
23.3 µM (inactive)

Please state recorded GI50 (tested on MDA-MB-231) of c1ccc2c3ccn4ccc5c6ccccc6[nH]c5c4c-3nc2c1
0.329 µM (active)

Please state recorded GI50 (tested on MDA-MB-231) of CC(=O)Nc1c2sscc-2n(C)c1=O
1.73 µM (inactive)

Please state recorded GI50 (tested on MDA-MB-231) of Cc1ccc([N+](=O)[O-])cc1S(=O)(=O)Nc1ccc(C2=NOC(c3ccco3)C2)cc1 (stereo not drawn)
17.1 µM (inactive)

Please state recorded GI50 (tested on MDA-MB-231) of O=C(CSC1=NCCN1)c1ccccc1
> 100 µM (inactive)

Please state recorded GI50 (tested on MDA-MB-231) of Cc1ccc(-n2cc(-c3ccc(Cl)cc3)c3c(N/N=C4\SCC(=O)N4C)ncnc32)cc1
4.99 µM (inactive)

Please state recorded GI50 (tested on MDA-MB-231) of CC(C)[C@]12O[C@H]1[C@@H]1O[C@]13[C@]1(O[C@H]1C[C@H]1C4=C(CC[C@@]13C)C(=O)OC4)[C@@H]2O [TRIPTOLIDE]
0.0145 µM (active)

Please state recorded GI50 (tested on MDA-MB-231) of O=C(O)c1ccccc1C(=O)Nn1cnnc1
> 100 µM (inactive)

Please state recorded GI50 (tested on MDA-MB-231) of Cc1ccc([N+](=O)[O-])cc1S(=O)(=O)Nc1ccc(C2=NN(C(=O)c3ccccc3)C(c3cccs3)C2)cc1 (stereo not drawn)
16.3 µM (inactive)

Please state recorded GI50 (tested on MDA-MB-231) of Oc1c(Cl)c(Cl)c(O)c2c1CCCC2
15.4 µM (inactive)

Please state recorded GI50 (tested on MDA-MB-231) of C/C=C\C(CC(=O)NCCC1CN(S(=O)(=O)C(F)(F)F)c2ccccc21)CC(=O)OC (stereo not drawn)
50.8 µM (inactive)

Please state recorded GI50 (tested on MDA-MB-231) of Cn1c(=O)c2c(nc3n(CCCCl)c(=O)ccn23)n(C)c1=O
> 100 µM (inactive)

Please state recorded GI50 (tested on MDA-MB-231) of CO/C1=C\C(C)=C\C(C)C(O)C(C)C/C(C)=C/C=C/C(OC)C(C(C)C(O)C(C)C2(O)CC(O)C(C)C(C(C)C)O2)OC1=O (stereo not drawn)
0.000382 µM (active)

Please state recorded GI50 (tested on MDA-MB-231) of Cc1cc(NC(=O)C(=O)Cc2nc3ccccc3s2)ccc1Cl
> 100 µM (inactive)

Please state recorded GI50 (tested on MDA-MB-231) of Cc1ccc(N2C(=O)C(=O)N(/N=C3\C(=O)Nc4ccccc43)C2=S)cc1
> 100 µM (inactive)

Please state recorded GI50 (tested on MDA-MB-231) of CC(ON(C(c1ccccc1)C(C)C)C(C)(C)C)c1ccccc1 (stereo not drawn)
21.1 µM (inactive)

Please state recorded GI50 (tested on MDA-MB-231) of O=C1CSC2(CC(/C=C/c3ccccc3Br)=NN2c2cccc(S(=O)(=O)O)c2)N1c1nc2ccccc2s1 (stereo not drawn)
> 100 µM (inactive)

Please state recorded GI50 (tested on MDA-MB-231) of Cc1ccc(S(=O)(=O)O)cc1.c1cc2c(c(NC3=NCCN3)c1)CCCC2
> 100 µM (inactive)

Please state recorded GI50 (tested on MDA-MB-231) of O=C1OCC/C1=C/c1ccc(/N=N/c2c(O)ccc3ccccc23)cc1
50.2 µM (inactive)

Please state recorded GI50 (tested on MDA-MB-231) of Cc1cc(CS(=O)(=O)/C=C/c2ccccc2[N+](=O)[O-])c(CS(=O)(=O)/C=C/c2ccccc2[N+](=O)[O-])cc1C
16.4 µM (inactive)

Please state recorded GI50 (tested on MDA-MB-231) of CCC1C2Cc3ccc(O)cc3C1(CC)CCN2C (stereo not drawn)
> 100 µM (inactive)

Please state recorded GI50 (tested on MDA-MB-231) of Cc1ccc(C2=Nc3c(N)nc(N)nc3NC(c3ccccc3)C2)cc1 (stereo not drawn)
11.8 µM (inactive)

----------
Give measured GI50 for each item. Keep answers brief.
tested on: UACC-62; assay: NCI tumour cell line growth inhibition, 48 h
Activity calls are given as the source filed them. No stated cut-off is given here; in the data, active = GI50 up to about 1.1 µM and inactive = higher.

Query (molecule): Cc1ccc([N+](=O)[O-])cc1S(=O)(=O)Nc1ccc(C2=NOC(c3ccco3)C2)cc1 (centres undefined) ; field requested: GI50
11.7 µM (inactive)

Query (molecule): CCCCCCCC(=O)OCC1OC(n2cc(F)c(=O)[nH]c2=O)C(N)C(OC(=O)CCCCCCC)C1O (centres undefined) ; field requested: GI50
17.8 µM (inactive)

Query (molecule): CN(C)CCN1CCc2c([nH]c3ccccc23)C1c1cccnc1 (centres undefined) ; field requested: GI50
> 100 µM (inactive)

Query (molecule): [N-]=[N+]=Nc1ccc(CNc2cc(=O)[nH]c(=O)[nH]2)cc1 ; field requested: GI50
> 100 µM (inactive)

Query (molecule): CC1=NC(=Cc2ccccc2O)C(=O)N1n1c(-c2ccccc2)nc2ccccc2c1=O ; field requested: GI50
14.3 µM (inactive)

Query (molecule): CCOC(=O)c1cc(C2CCN(Cc3ccccc3)C2=O)c(C(=O)/C=C(/C)N)[nH]1 (centres undefined) ; field requested: GI50
> 100 µM (inactive)

Query (molecule): O=C1CSC(c2cccc(Oc3ccccc3)c2)N1c1ccc(Cl)cc1 (centres undefined) ; field requested: GI50
10.8 µM (inactive)

Query (molecule): CC#CC#C/C=C1/O[C@]2(CCC(OC(=O)CC(C)C)CO2)[C@@H]2O[C@H]12 (some centres undefined) ; field requested: GI50
23.3 µM (inactive)

Query (molecule): CCOC(=O)c1c(-c2ccc(O)c(OC)c2)c(C#N)c(=S)n(C2OC(CO)C(O)C(O)C2O)c1-c1ccccc1 (centres undefined) ; field requested: GI50
> 100 µM (inactive)

----------
test system: TK-10; assay: NCI tumour cell line growth inhibition, 48 h
Active and inactive are the calls of the source. No stated cut-off is given here; in the data, active = GI50 up to about 1.1 µM and inactive = higher.
Thanks in advance; please answer with one of these: y for active, n for inactive

Entry Cc1c(O)c(OC2OC(CO)C(O)C(O)C2O)cc2c1CC[C@@H]1C2(C)C(=O)C[C@]2(C)[C@@H]([C@@](C)(O)C3CCC(C)(C)O3)[C@H](O)C[C@@]12C (some centres undefined) : call = ?
n

Entry CN1c2ccccc2C2c3c(O)ccc(O)c3C=C([N+](=O)[O-])C21 (centres undefined) : call = ?
n

Entry CC(=O)OCC1OC(n2c(C)c(C)c(C)c(C#N)c2=S)C(OC(C)=O)C(OC(C)=O)C1OC(C)=O (centres undefined) : call = ?
n

Entry O=[N+]([O-])c1cc2c(c([N+](=O)[O-])c1)NCc1ccccc1O2 : call = ?
n

Entry CC1(C)CCC(C)(C)c2cc(NC(=O)c3ccc(C(=O)O)cc3)ccc21 [TAMIBAROTENE] : call = ?
n

Entry CCCCOC(=O)NC(=O)c1cn(CCCOC(=O)CCCCCCCCC(=O)OCCCn2cc(C(=O)NC(=O)OCCCC)c(=O)n(C)c2=O)c(=O)n(C)c1=O : call = ?
n

Entry CCCCCCCCCCCCCCCCC1=CC(=O)C=C(OC)C1=O : call = ?
n

Entry O=C(N/C=C1\C(=O)Oc2ccccc2C1=O)Oc1ccccc1 : call = ?
n

Entry c1ccc2c(c1)SCCC2NC1=NCCO1 (centres undefined) : call = ?
n

Entry Cc1ccc(C(=O)CC(Cl)=C(Cl)Cl)cc1 : call = ?
n

Entry O=NN(CCCl)C(=O)NC1CCC(CC2CCC(NC(=O)N(CCCl)N=O)CC2)CC1 (centres undefined) : call = ?
n

Entry CN(C)CCCN1c2ccccc2CCc2cccc([N+](=O)[O-])c21 : call = ?
n

Entry O=C1OCC/C1=C/c1ccc(/N=N/c2c(O)ccc3ccccc23)cc1 : call = ?
n

Entry COc1ccccc1NC1Oc2cc3c(cc2C(c2cc(OC)c(OC)c(OC)c2)C1C)OCO3 (centres undefined) : call = ?
n

Entry Cc1ccc(C2=Nc3c(N)nc(N)nc3NC(c3ccccc3)C2)cc1 (centres undefined) : call = ?
n

Entry Cc1ccc(S(=O)(=O)O)cc1.c1cc2c(c(NC3=NCCN3)c1)CCCC2 : call = ?
n

Entry CC(=O)N1C(Nc2ccccn2)CCN1c1ccccc1 (centres undefined) : call = ?
n

Entry CCOC(=O)CCC(C(=O)OCC)n1nnc2ccc(Nc3c(C)[n+]([O-])c4cc(F)c(OCC)cc4[n+]3[O-])cc21 (centres undefined) : call = ?
n

Entry CC(C)[C@]12O[C@H]1[C@@H]1O[C@]13[C@]1(O[C@H]1C[C@H]1C4=C(CC[C@@]13C)C(=O)OC4)[C@@H]2O [TRIPTOLIDE] : call = ?
y
